FYI, the data here is from PubChem BioAssay (NCATS).

- method notes: Quantitative highthroughput screen to assess conditional lethalithy of NOMO1 cells grown in Human Plasma-Like Medium with dialyzed fetal bovine serum (HPLM+ds) (AID 1963878); also: nearly all actives have a fitted effect of over 35% in size
- assay setup: NOMO1 AML cells in HPLM+ds, CellTiter-Glo viability, 48 h; series mostly up to 45.8 µM
Results filed as inconclusive are left out. The source made the active and inactive calls. Calls follow the shape of the dose curve; as a rule, active = well fitted cell-killing curve with a large enough effect; inconclusive = small, poorly fitted or top-dose-only effect, or effect the other way; inactive = no such curve, though single readings can be large or run the other way.
Hi! Could you answer with just one of these? True (active), False (inactive)

I'd appreciate the recorded outcome for "Cc1c(CCOc2ccc(C(=O)O)cc2)c2cc(Cl)ccc2n1C(c1ccccc1)c1ccccc1" from this test.
False

Assay result, entry "O=C(Nc1cccc(Cl)c1)Nc1ncc(CCNc2ncnc3ccsc23)s1" — outcome?
True

How did this test come out for "C[C@H]1[C@H](O)O[C@@H]2O[C@@]3(C)CC[C@@H]4[C@H](C)CC[C@@H]1[C@@]24OO3" ?
True

Which outcome was assigned to "Nc1nc(N)nc(-c2cc(Cl)ccc2Cl)n1" in this test?
False

Field: outcome | Entry: "Cn1cc(-c2ccc3ncc(Cc4ccc5ncccc5c4)n3n2)cn1"
False

Can you look up the reported call for "COc1ccccc1N1CCN(CCN(C(=O)C2CCCCC2)c2ccccn2)CC1" for me?
False

Could you check what this test reported for "Cc1cnc(Nc2ccc(F)cc2Cl)nc1-c1c[nH]c(C(=O)N[C@H](CO)c2cccc(Cl)c2)c1" ?
True

In this assay, the call recorded for "CCNC(=O)[C@H]1O[C@@H](n2cnc3c(N)nc(NCCc4ccc(CCC(=O)O)cc4)nc32)[C@H](O)[C@H]1O" was what?
False

Which outcome did this test record for the molecule CN1c2ccccc2C(=O)N2CCc3c([nH]c4ccccc34)C21 (stereo not given) ?
False

Recorded test outcome, item "COc1ccc(-c2oc3c(CC=C(C)C)c(O)cc(O)c3c(=O)c2O)cc1"
False
